# protocol_notes: Human HepG2 cell viability assay in 384 well format
# Assay type: toxicity, cell-based
# Set-up: dose 125 nL, time 70.5 hour; concentration not given beside the values
# condition_notes: HepG2 cells, read-out: Inhibition

- compound: "CCCn1cc(NC(=O)c2ccc(N(C)CC)cc2)ccc1=O"
  cytotoxicity at 70.5 h (%): -7.67
- compound: "CNc1cncc(C2CCCN2Cc2ccccn2)n1 (stereo unspecified)"
  cytotoxicity at 70.5 h (%): -6.51
- compound: "Cc1[nH]ccc1C(=O)N1CCC(c2nnc(Cn3cccn3)n2C)CC1"
  cytotoxicity at 70.5 h (%): -0.908
- compound: "O=S(=O)(NCC1(c2cccs2)CCOCC1)c1ccc2c(c1)OCCO2"
  cytotoxicity at 70.5 h (%): 12
- compound: "c1cnc(N2CC[C@@H]3CN(Cc4ccncc4)CCO[C@@H]3C2)nc1"
  cytotoxicity at 70.5 h (%): -2.03
- compound: "Cc1occc1C(=O)N1Cc2nccn2CC(CN2CCCC2)C1 (stereo unspecified)"
  cytotoxicity at 70.5 h (%): -14.1
